Overview of reported PI across a group of compounds:
Species: Mus musculus
Assay: Protection index, ratio of TD50 to ED50 by MES test for albino mouse
Type: functional
Output: the number by itself.

Completed entries (count: 5):
COc1ccc(/C=C/C(=O)Nc2nc3ccc(C)cc3s2)cc1 ... 2.24
COc1ccc(C2CC(Nc3nc4ccc(C)cc4s3)=NN2C(C)=O)cc1 (stereo unspecified) ... 4.68
CC(=O)N1N=C(Nc2nc3ccc([N+](=O)[O-])cc3s2)CC1c1ccccc1 (stereo unspecified) ... 1.65
O=C(/C=C/c1ccco1)Nc1nc2ccc(Cl)cc2s1 ... 1.2
COc1ccc(/C=C/C(=O)Nc2nc3ccc(Cl)cc3s2)cc1 ... 1.79

Using the record for "COc1ccc(/C=C/C(=O)Nc2nc3ccc(C)cc3s2)cc1O" , report its PI.
1.18

Repeat for the following compound: "COc1ccc(/C=C/C(=O)Nc2nc3ccc([N+](=O)[O-])cc3s2)cc1"
1.47

Repeat for the following compound: "COc1ccc(/C=C/C(=O)Nc2nc3ccccc3s2)cc1O"
1.12

Repeat for the following compound: COc1ccc(C2CC(Nc3nc4ccc([N+](=O)[O-])cc4s3)=NN2C(C)=O)cc1 (stereo unspecified)
1.69

Repeat for the following compound: "O=C(/C=C/c1ccccc1)Nc1nc2ccc([N+](=O)[O-])cc2s1"
1.3

Repeat for the following compound: "O=C(/C=C/c1ccc(O)cc1)Nc1nc2ccc(Cl)cc2s1"
1.28

###

Experiment: Neurotoxicity in ip dosed albino mouse during 1 min by rotarod test
Assay type: toxicity, organism-based
Conditions: in vivo
Decision: TD50 at 1 min beneath 400 µmol/kg gives yes (1); TD50 at 1 min meeting or exceeding 400 µmol/kg gives no (0).

Check out these entries, answers already filled in.
CC(=O)N1N=C(Nc2nc3ccccc3s2)CC1c1ccc(O)cc1 (stereo unspecified) ... no (0)
COc1ccc(C2CC(Nc3nc4ccc(Cl)cc4s3)=NN2C(C)=O)cc1O (stereo unspecified) ... yes (1)
COc1ccc(/C=C/C(=O)Nc2nc3ccc(C)cc3s2)cc1O ... yes (1)
CC(=O)N1N=C(Nc2nc3ccc([N+](=O)[O-])cc3s2)CC1c1ccc(O)cc1 (stereo unspecified) ... yes (1)
COc1ccc(C2CC(Nc3nc4ccc([N+](=O)[O-])cc4s3)=NN2C(C)=O)cc1 (stereo unspecified) ... yes (1)

Confirm or reject: TD50 at 1 min of "COc1ccc(/C=C/C(=O)Nc2nc3ccc(Cl)cc3s2)cc1" lies strictly below 400 µmol/kg
no (0)

Repeat for the following compound: "O=C(/C=C/c1ccco1)Nc1nc2ccccc2s1"
no (0)

Repeat for the following compound: CC(=O)N1N=C(Nc2nc3ccc(C)cc3s2)CC1c1ccc(O)cc1 (stereo unspecified)
yes (1)

Repeat for the following compound: CC(=O)N1N=C(Nc2nc3ccccc3s2)CC1c1ccco1 (stereo unspecified)
no (0)

Repeat for the following compound: CC(=O)N1N=C(Nc2nc3ccccc3s2)CC1c1ccc(Cl)cc1 (stereo unspecified)
yes (1)

###

Test system: Mus musculus
Assay: Anticonvulsant activity in ip dosed albino mouse assessed as absence of hind limb tonic extension after 0.5 hrs by MES test
Type: functional, Hindlimb
Conditions: Mus musculus, albino, Hindlimb, ip, 0.5 h
Decision: ED50 beneath 200 µmol/kg gives 1; ED50 meeting or exceeding 200 µmol/kg gives -1.

Check out these entries, answers already filled in.
O=C(/C=C/c1ccccc1)Nc1nc2ccc(Cl)cc2s1 ... -1
Cc1ccc2nc(NC(=O)/C=C/c3ccc(Cl)cc3)sc2c1 ... 1

Confirm or reject: ED50 of COc1ccc(C2CC(Nc3nc4ccc(C)cc4s3)=NN2C(C)=O)cc1O (stereo not given) lies strictly below 200 µmol/kg
1

Repeat for the following compound: CC(=O)N1N=C(Nc2nc3ccc([N+](=O)[O-])cc3s2)CC1c1ccc(Cl)cc1 (stereo not given)
1

Repeat for the following compound: "COc1ccc(/C=C/C(=O)Nc2nc3ccc([N+](=O)[O-])cc3s2)cc1"
-1

###

Overview of reported ED50 across a group of molecules:
Tested on: Mus musculus
Assay: Anticonvulsant activity in ip dosed albino mouse assessed as absence of hind limb tonic extension after 0.5 hrs by MES test
Assay type: functional, Hindlimb
Conditions: Mus musculus, albino, Hindlimb, ip, 0.5 h
Give the value in µmol/kg but do not write µmol/kg after it.

Completed entries (count: 5):
CC(=O)N1N=C(Nc2nc3ccc(Cl)cc3s2)CC1c1ccccc1 (stereo unspecified) ... 161
O=C(/C=C/c1ccc(O)cc1)Nc1nc2ccc(Cl)cc2s1 ... 322
CC(=O)N1N=C(Nc2nc3ccc(Cl)cc3s2)CC1c1ccc(Cl)cc1 (stereo unspecified) ... 79.5
COc1ccc(/C=C/C(=O)Nc2nc3ccccc3s2)cc1 ... 435
CC(=O)N1N=C(Nc2nc3ccccc3s2)CC1c1ccc(Cl)cc1 (stereo unspecified) ... 209

Now consider a different molecule.
Using the record for COc1ccc(C2CC(Nc3nc4ccc(Cl)cc4s3)=NN2C(C)=O)cc1 (stereo unspecified) , report its ED50.
93.3

###

Assay: Neurotoxicity in ip dosed albino mouse during 1 min by rotarod test
Assay type: toxicity, organism-based
Conditions: in vivo
Decision: TD50 at 1 min beneath 500 µmol/kg gives y; TD50 at 1 min meeting or exceeding 500 µmol/kg gives n.

Check out these entries, answers already filled in.
COc1ccc(/C=C/C(=O)Nc2nc3ccc(C)cc3s2)cc1 ... y
CC(=O)N1N=C(Nc2nc3ccc([N+](=O)[O-])cc3s2)CC1c1ccc(Cl)cc1 (stereo unspecified) ... y
O=C(/C=C/c1ccc(Cl)cc1)Nc1nc2ccccc2s1 ... y
O=C(/C=C/c1ccc(Cl)cc1)Nc1nc2ccc(Cl)cc2s1 ... n
Cc1ccc2nc(NC(=O)/C=C/c3ccco3)sc2c1 ... n

Confirm or reject: TD50 at 1 min of COc1ccc(C2CC(Nc3nc4ccc(C)cc4s3)=NN2C(C)=O)cc1 (stereo unspecified) lies strictly below 500 µmol/kg
y

Repeat for the following compound: "O=C(/C=C/c1ccccc1)Nc1nc2ccc([N+](=O)[O-])cc2s1"
n

Repeat for the following compound: CC(=O)N1N=C(Nc2nc3ccc(C)cc3s2)CC1c1ccc(Cl)cc1 (stereo unspecified)
y

Repeat for the following compound: COc1ccc(C2CC(Nc3nc4ccc(C)cc4s3)=NN2C(C)=O)cc1O (stereo unspecified)
y

Repeat for the following compound: "O=C(/C=C/c1ccc(O)cc1)Nc1nc2ccccc2s1"
n

###

Species on record: Mus musculus
Experiment: Protection index, ratio of TD50 to ED50 by MES test for albino mouse
Assay type: functional
observable: PI

Completed entries (count: 8):
O=C(/C=C/c1ccc(Cl)cc1)Nc1nc2ccccc2s1 ... 1.1
CC(=O)N1N=C(Nc2nc3ccc(Cl)cc3s2)CC1c1ccco1 (stereo not given) ... 1.82
CC(=O)N1N=C(Nc2nc3ccc(C)cc3s2)CC1c1ccccc1 (stereo not given) ... 2.49
CC(=O)N1N=C(Nc2nc3ccccc3s2)CC1c1ccco1 (stereo not given) ... 1.41
COc1ccc(C2CC(Nc3nc4ccc(Cl)cc4s3)=NN2C(C)=O)cc1O (stereo not given) ... 2.16
CC(=O)N1N=C(Nc2nc3ccc([N+](=O)[O-])cc3s2)CC1c1ccc(Cl)cc1 (stereo not given) ... 2.48
O=C(/C=C/c1ccccc1)Nc1nc2ccc(Cl)cc2s1 ... 1.34
CC(=O)N1N=C(Nc2nc3ccc(C)cc3s2)CC1c1ccc(O)cc1 (stereo not given) ... 3.14

Using the record for "O=C(/C=C/c1ccc(O)cc1)Nc1nc2ccccc2s1" , report its PI.
1.78

Repeat for the following compound: "Cc1ccc2nc(NC(=O)/C=C/c3ccco3)sc2c1"
1.19

###

Species: Mus musculus
Test: Protection index, ratio of TD50 to ED50 by MES test for albino mouse
Assay type: functional
Overview of reported PI across a group of molecules:
Output: the number by itself.

CC(=O)N1N=C(Nc2nc3ccc(Cl)cc3s2)CC1c1ccc(O)cc1 (stereo not drawn) ... 1.97

Using the record for O=C1NC(=O)C(c2ccccc2)(c2ccccc2)N1 [PHENYTOIN] , report its PI.
8.01

Repeat for the following molecule: "COc1ccc(/C=C/C(=O)Nc2nc3ccccc3s2)cc1"
1.24

Repeat for the following molecule: CC(=O)N1N=C(Nc2nc3ccc(C)cc3s2)CC1c1ccc(Cl)cc1 (stereo not drawn)
4.86

###

Overview of reported TD50 at 1 min across a group of compounds:
Assay: Neurotoxicity in ip dosed albino mouse during 1 min by rotarod test
Format: toxicity, organism-based
Details: in vivo
The reply must contain the numeric value and, after it, the unit.

Completed entries (count: 6):
CC(=O)N1N=C(Nc2nc3ccc(Cl)cc3s2)CC1c1ccccc1 (stereo unspecified) ... 245 µmol/kg
CC(=O)N1N=C(Nc2nc3ccc(Cl)cc3s2)CC1c1ccc(Cl)cc1 (stereo unspecified) ... 345 µmol/kg
COc1ccc(/C=C/C(=O)Nc2nc3ccc([N+](=O)[O-])cc3s2)cc1O ... 793 µmol/kg
COc1ccc(C2CC(Nc3nc4ccc([N+](=O)[O-])cc4s3)=NN2C(C)=O)cc1O (stereo unspecified) ... 256 µmol/kg
CC(=O)N1N=C(Nc2nc3ccc(Cl)cc3s2)CC1c1ccco1 (stereo unspecified) ... 387 µmol/kg
COc1ccc(/C=C/C(=O)Nc2nc3ccccc3s2)cc1 ... 540 µmol/kg

Using the record for "O=C(/C=C/c1ccccc1)Nc1nc2ccc(Cl)cc2s1" , report its TD50 at 1 min.
570 µmol/kg

Repeat for the following compound: "O=C(/C=C/c1ccco1)Nc1nc2ccc(Cl)cc2s1"
658 µmol/kg

The measurements presented in this section are drawn from ChEMBL document CHEMBL1156127.
